# assayed_system: KRAS_G12D and cRAF (Homo sapiens, UniProt P01116, G12D)
# Sequence (P01116 1-188 isoform P01116-2 G12D): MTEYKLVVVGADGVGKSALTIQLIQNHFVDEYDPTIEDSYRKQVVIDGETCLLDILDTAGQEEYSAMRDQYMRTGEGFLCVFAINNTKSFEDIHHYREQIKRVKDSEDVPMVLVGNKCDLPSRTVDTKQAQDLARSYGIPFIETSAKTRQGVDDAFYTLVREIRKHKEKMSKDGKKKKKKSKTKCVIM
# test_summary: Inhibition of KRAS_G12D/cRAF binding (Cisbio binding kit, 665/615 ratio), Effect Embodiment B
# assay_setup: read-out: GTP-KRAS-G12D:CRAF IC50
pIC50: −log10 of the molar value. Where a name gives a salt, the structure may show the parent alone.
# key: entry, value: pIC50
assay_endpoint: pIC50

compound="CN1CCCC1CCOc1nc(N2CC3CCC(C2)N3)c2cc(Cl)c(-c3cc(O)cc4ccccc34)c(F)c2n1 (single isomer, unassigned) [Compound 96a]" assay_endpoint=pIC50 endpoint_result=7.05
compound="Oc1cc(-c2c(Cl)cc3c(N4CC5CCC(C4)N5)nc(OCCN4CCCC4)nc3c2F)c2ccccc2c1 (single isomer, unassigned) [Compound 116, dihydrochloride]" assay_endpoint=pIC50 endpoint_result=6.72
compound="CO[C@H]1C[C@H]2CC[C@@H](C1)N2C[C@@H](C)COc1nc(N2CC3CCC(C2)N3)c2cc(Cl)c(-c3cc(O)cc4ccccc34)c(F)c2n1 (single isomer, unassigned)" assay_endpoint=pIC50 endpoint_result=7.81

====

Items are presented alongside their recorded IC50.
# assayed_system: KRAS_G12D and cRAF (Homo sapiens, UniProt P01116, G12D)
# test_summary: Inhibition of KRAS_G12D/cRAF binding (Cisbio binding kit, 665/615 ratio), Effect Embodiment B
# assay_setup: read-out: GTP-KRAS-G12D:CRAF IC50
# Method: Similarly, the first dilution point of the compound to be tested was its storage solution, and the solution was 3-fold diluted, with 11+0 points of dilution. Echo was used to transfer 0.2 μL gradient diluted solution of the compounds into a 384-well plate, with 2 duplicated wells for each compound, and the final concentration of DMSO was 1%. The solution was centrifuged for 1 min at 1000 rpm/min. IC50 of the compounds was fitted by Graphpad Prism 8 nonlinear regression equation: […]
Counter-ions that a name gives are not always drawn.
assay_endpoint: IC50 (nM)

compound="C[C@@H]1CN(CC2(COc3nc(N4CC5CCC(C4)N5)c4cc(Cl)c(-c5cc(O)cc6ccccc56)c(F)c4n3)CC2)C[C@H](C)O1 (single isomer, unassigned)" assayed_system="KRAS_G12D and cRAF (Homo sapiens, UniProt P01116, G12D)" unit_abbrev=nM endpoint_result=7.23
compound="CCc1cccc2cc(O)cc(-c3c(F)cc4c(N5CC6CCC(C5)N6)nc(OCCCN5C6CCC5COC6)nc4c3F)c12 (single isomer, unassigned) [Compound 271a]" assayed_system="KRAS_G12D and cRAF (Homo sapiens, UniProt P01116, G12D)" unit_abbrev=nM endpoint_result=11.4
compound="Oc1cc(-c2c(Cl)cc3c(N4CC5CCC(C4)N5)nc(OCCCN4CCC5(CCOC5)CC4)nc3c2F)c2ccccc2c1 (single isomer, unassigned)" assayed_system="KRAS_G12D and cRAF (Homo sapiens, UniProt P01116, G12D)" unit_abbrev=nM endpoint_result=102
compound="C[C@@H](COc1nc(N2CC3CCC(C2)N3)c2cc(Cl)c(-c3cc(O)cc4ccccc34)c(F)c2n1)CN1C[C@H](C)OC[C@H]1C (single isomer, unassigned)" assayed_system="KRAS_G12D and cRAF (Homo sapiens, UniProt P01116, G12D)" unit_abbrev=nM endpoint_result=18.6
compound="Oc1cc(-c2c(Cl)cc3c(N4CC5CCC(C4)N5)nc(OCC(F)CN4CCCC4)nc3c2F)c2ccccc2c1 (single isomer, unassigned) [Compound 109b, hydrochloride]" assayed_system="KRAS_G12D and cRAF (Homo sapiens, UniProt P01116, G12D)" unit_abbrev=nM endpoint_result=208

====

# assayed_system: KRAS-G12D and SOS1 (Homo sapiens, UniProt P01116, G12D)
# Sequence (P01116 1-188 isoform P01116-2 G12D): as above
# test_summary: Inhibition of KRAS-G12D/SOS1 binding (Cisbio binding kit, 665/615 ratio), Effect Embodiment A
# assay_setup: read-out: GTP-KRAS-G12D:SOS1 IC50
# Description: Similarly, the first dilution point of the compound to be tested was its storage solution, and the solution was 3-fold diluted, with 11+0 points of dilution. Echo was used to transfer 0.2 μL gradient diluted solution of the compounds into a 384-well plate, with 2 duplicated wells for each compound, and the final concentration of DMSO was 1%. The solution was centrifuged for 1 min at 1000 rpm/min. IC50 of the compounds was fitted by Graphpad Prism 8 nonlinear regression equation: […]
pIC50: −log10 of the molar value.
Rule: pIC50 under 7 gives 0.0, otherwise 1.0.

compound="N=C(N)NCCCOc1nc(N2CC3CCC(C2)N3)c2cc(Cl)c(-c3cc(O)cc4ccccc34)c(F)c2n1 (single isomer, unassigned)" group=1.0
compound="CN1CCC[C@H]1COc1nc(N2CC3NC(C2)C2CC32)c2cnc(-c3cc(O)cc4ccccc34)c(F)c2n1 (some centres unmarked)" group=0.0
compound="C[C@@H](COc1nc(N2CC3CCC(C2)N3)c2cc(Cl)c(-c3cc(O)cc4ccccc34)c(F)c2n1)CN1C[C@H](C)OC[C@@H]1C (single isomer, unassigned)" group=1.0
compound="Oc1cc(-c2c(Cl)cc3c(N4CC5CCC(C4)N5)nc(OCCCN4CCCC4)nc3c2F)c2ccccc2c1 (single isomer, unassigned) [Compound 63b]" group=0.0
compound="CN(C)C1CN(c2nc(N3CC4(CNC4)C3)c3cc(Cl)c(-c4cc(O)cc5ccccc45)c(F)c3n2)C1 (single isomer, unassigned)" group=0.0
compound="CN(C)C(=O)OCC1CCC2(COc3nc(N4CC5CCC(C4)N5)c4cc(Cl)c(-c5cc(O)cc6ccccc56)c(F)c4n3)CCCN12 (single isomer, unassigned) [Compound 232a]" group=1.0
compound="Oc1cc(-c2c(Cl)cc3c(N4CC5CCC(C4)N5)nc(OCC4(CN5C6CCC5COC6)CC4)nc3c2F)c2ccccc2c1 (single isomer, unassigned)" group=1.0
compound="CN(C)C1CN(c2nc(N3CC4CCC(C3)N4)c3cc(Cl)c(-c4cc(O)cc5cccc(Cl)c45)c(F)c3n2)C1 (single isomer, unassigned) [Compound 65a]" group=0.0
compound="CN(C)C1CN(c2nc(N3CCNCC3)c3cc(Cl)c(-c4cc(O)cc5ccccc45)c(F)c3n2)C1 (single isomer, unassigned) [Comparative embodiment b, reference compound]" group=0.0
compound="CCC(COc1nc(N2CC3CCC(C2)N3)c2cc(Cl)c(-c3cc(O)cc4ccccc34)c(F)c2n1)CN1C2CCC1COC2 (single isomer, unassigned) [Compound 201a]" group=1.0
compound="Oc1cc(-c2c(Cl)cc3c(N4CC5CCC(C4)N5)nc(OCC(F)CN4C5CCC4COC5)nc3c2F)c2ccccc2c1 (single isomer, unassigned) [Compound 179b]" group=1.0

====

# assayed_system: KRAS-G12D and SOS1 (Homo sapiens, UniProt P01116, G12D)
# Construct: purchased
# test_summary: Inhibition of KRAS-G12D/SOS1 binding (Cisbio binding kit, 665/615 ratio), Effect Embodiment A
# assay_setup: read-out: GTP-KRAS-G12D:SOS1 IC50
Where a name gives a salt, the structure may show the parent alone.
Collected log10 of IC50 values appear next to each entry.
assay_endpoint: log10 of IC50 (log10 of the value in nM)

molecule="C[C@@H](COc1nc(N2CC3CCC(C2)N3)c2cc(Cl)c(-c3cc(O)cc4ccccc34)c(F)c2n1)CN1C[C@@H](C)OC[C@H]1C (single isomer, unassigned)" assay_endpoint="log10 of IC50" endpoint_result=1.28
molecule="CN(C)[C@H]1C[C@@H](Oc2nc(N3CC4CCC(C3)N4)c3cc(Cl)c(-c4cc(O)cc5ccccc45)c(F)c3n2)C1 (single isomer, unassigned) [Compound 69a, dihydrochloride]" assay_endpoint="log10 of IC50" endpoint_result=2.35
molecule="CC(C)(COc1nc(N2CC3CCC(C2)N3)c2cc(Cl)c(-c3cc(O)cc4ccccc34)c(F)c2n1)CN1C2CCC1COC2 (single isomer, unassigned) [Compound 120, dihydrochloride]" assay_endpoint="log10 of IC50" endpoint_result=1.56
molecule="CCN(C)CCCOc1nc(N2CC3CCC(C2)N3)c2cc(Cl)c(-c3cc(O)cc4ccccc34)c(F)c2n1 (single isomer, unassigned) [Compound 49b]" assay_endpoint="log10 of IC50" endpoint_result=4.14
molecule="CN(C)C1CN(c2nc(N3CC4CCC(C3)N4)c3cc(Cl)c(-c4c(O)cccc4F)c(F)c3n2)C1 (single isomer, unassigned) [Compound 43b]" assay_endpoint="log10 of IC50" endpoint_result=3.41

====

# assayed_system: KRAS_G12D and cRAF (Homo sapiens, UniProt P01116, G12D)
# test_summary: Inhibition of KRAS_G12D/cRAF binding (Cisbio binding kit, 665/615 ratio), Effect Embodiment B
# assay_setup: read-out: GTP-KRAS-G12D:CRAF IC50
Where a name gives a salt, the structure may show the parent alone.
Returns: string. Value is 1 (yes) if measured IC50 is below 70 nM, and 0 (no) if it is greater than or equal to it.

compound="Oc1cc(Cl)c(C2CC2)c(-c2c(Cl)cc3c(N4C[C@H]5CC[C@@H](C4)N5)nc(OCCCN4C5CCC4COC5)nc3c2F)c1 (single isomer, unassigned) [Compound 197a]" assayed_system="KRAS_G12D and cRAF (Homo sapiens, UniProt P01116, G12D)" group="1 (yes)"
compound="CN(C)CCCCCCOc1nc(N2C[C@H]3CC[C@@H](C2)N3)c2cc(Cl)c(-c3cc(O)cc4ccccc34)c(F)c2n1 (single isomer, unassigned) [Compound 68, dihydrochloride]" assayed_system="KRAS_G12D and cRAF (Homo sapiens, UniProt P01116, G12D)" group="0 (no)"
compound="C[C@@H](COc1nc(N2CC3CCC(C2)N3)c2cc(Cl)c(-c3cc(O)cc4ccccc34)c(F)c2n1)CN1C[C@H](C)OC[C@@H]1C (single isomer, unassigned)" assayed_system="KRAS_G12D and cRAF (Homo sapiens, UniProt P01116, G12D)" group="1 (yes)"
compound="CCc1c(F)ccc2cc(O)cc(-c3c(Cl)cc4c(N5CC6CCC(C5)N6)nc(OCCCN5C6CCC5COC6)nc4c3F)c12 (single isomer, unassigned)" assayed_system="KRAS_G12D and cRAF (Homo sapiens, UniProt P01116, G12D)" group="1 (yes)"
compound="C[C@@H]1CCCCN1CCOc1nc(N2CC3CCC(C2)N3)c2cc(Cl)c(-c3cc(O)cc4ccccc34)c(F)c2n1 (single isomer, unassigned)" assayed_system="KRAS_G12D and cRAF (Homo sapiens, UniProt P01116, G12D)" group="0 (no)"
compound="Oc1cc(-c2c(Cl)cc3c(N4CC5CCC(C4)N5)nc(OCCCN4CCC5(CCOC5)C4)nc3c2F)c2ccccc2c1 (single isomer, unassigned)" assayed_system="KRAS_G12D and cRAF (Homo sapiens, UniProt P01116, G12D)" group="0 (no)"
compound="CN(C)C12CC(COc3nc(N4CC5CCC(C4)N5)c4cc(Cl)c(-c5cc(O)cc6ccccc56)c(F)c4n3)(C1)C2 (single isomer, unassigned) [Compound 127, hydrochloride]" assayed_system="KRAS_G12D and cRAF (Homo sapiens, UniProt P01116, G12D)" group="0 (no)"
compound="CN(C)[C@H]1C[C@@H](Oc2nc(N3CC4CCC(C3)N4)c3cc(Cl)c(-c4cc(O)cc5ccccc45)c(F)c3n2)C1 (single isomer, unassigned) [Compound 69a, dihydrochloride]" assayed_system="KRAS_G12D and cRAF (Homo sapiens, UniProt P01116, G12D)" group="0 (no)"
compound="CCc1cccc2cc(O)cc(-c3c(F)cc4c(N5CC6CCC(C5)N6)nc(OC[C@H](C)CN5C6CCC5COC6)nc4c3F)c12 (single isomer, unassigned) [Compound 284a, dihydrochloride]" assayed_system="KRAS_G12D and cRAF (Homo sapiens, UniProt P01116, G12D)" group="1 (yes)"
compound="Oc1cc(-c2c(Cl)cc3c(N4CC5CCC(C4)N5)nc(OCC4(CN5C6CCC5COC6)COC4)nc3c2F)c2ccccc2c1 (single isomer, unassigned)" assayed_system="KRAS_G12D and cRAF (Homo sapiens, UniProt P01116, G12D)" group="0 (no)"
